Hello, the source for this data is patent US9944603B2, in case you need it.

Below, each entry is listed with its recorded pEC50.
# Measured on: human F508del CFTR (Homo sapiens, UniProt P13569, DEL508-508)
# Sequence (P13569 with tags, fused parts or gaps DEL508-508): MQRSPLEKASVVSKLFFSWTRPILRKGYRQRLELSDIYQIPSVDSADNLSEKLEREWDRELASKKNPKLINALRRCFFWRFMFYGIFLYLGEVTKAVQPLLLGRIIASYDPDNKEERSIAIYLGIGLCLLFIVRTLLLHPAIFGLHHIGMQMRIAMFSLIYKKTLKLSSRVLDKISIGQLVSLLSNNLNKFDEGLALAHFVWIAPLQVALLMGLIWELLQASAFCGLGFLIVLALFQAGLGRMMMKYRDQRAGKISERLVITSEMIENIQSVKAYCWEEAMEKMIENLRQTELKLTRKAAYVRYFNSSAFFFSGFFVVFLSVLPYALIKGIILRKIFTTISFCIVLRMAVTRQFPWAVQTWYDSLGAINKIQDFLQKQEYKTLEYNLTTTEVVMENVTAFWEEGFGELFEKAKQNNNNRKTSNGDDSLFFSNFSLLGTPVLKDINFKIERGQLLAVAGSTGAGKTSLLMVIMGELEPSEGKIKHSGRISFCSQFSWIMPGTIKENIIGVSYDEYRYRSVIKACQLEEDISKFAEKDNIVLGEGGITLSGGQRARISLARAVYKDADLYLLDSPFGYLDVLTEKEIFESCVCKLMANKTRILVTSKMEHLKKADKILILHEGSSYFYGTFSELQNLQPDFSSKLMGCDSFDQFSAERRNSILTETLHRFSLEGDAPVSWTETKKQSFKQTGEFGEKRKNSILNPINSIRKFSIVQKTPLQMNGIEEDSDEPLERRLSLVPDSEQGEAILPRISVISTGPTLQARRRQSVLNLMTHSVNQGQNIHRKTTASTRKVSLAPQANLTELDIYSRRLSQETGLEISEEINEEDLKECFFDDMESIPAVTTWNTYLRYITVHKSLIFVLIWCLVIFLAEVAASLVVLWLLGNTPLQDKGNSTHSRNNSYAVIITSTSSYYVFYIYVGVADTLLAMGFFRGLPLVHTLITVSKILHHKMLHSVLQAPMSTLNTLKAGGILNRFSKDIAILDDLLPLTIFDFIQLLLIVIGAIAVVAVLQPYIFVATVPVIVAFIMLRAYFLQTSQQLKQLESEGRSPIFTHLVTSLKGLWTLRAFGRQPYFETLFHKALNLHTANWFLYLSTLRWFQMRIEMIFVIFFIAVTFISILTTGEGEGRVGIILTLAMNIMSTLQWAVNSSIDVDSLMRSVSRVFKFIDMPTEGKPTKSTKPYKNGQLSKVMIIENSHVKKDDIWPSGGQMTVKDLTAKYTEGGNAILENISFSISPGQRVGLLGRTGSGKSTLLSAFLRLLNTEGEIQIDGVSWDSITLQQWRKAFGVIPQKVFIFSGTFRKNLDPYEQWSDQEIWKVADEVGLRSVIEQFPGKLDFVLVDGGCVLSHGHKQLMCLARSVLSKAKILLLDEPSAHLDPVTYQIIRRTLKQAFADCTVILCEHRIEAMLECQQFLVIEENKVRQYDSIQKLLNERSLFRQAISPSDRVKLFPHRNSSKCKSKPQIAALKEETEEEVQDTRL
# Measurement protocol: CFTR-YFP Assay, CFTR Corrector Protocol (YFP flux assay)
pEC50: −log10 of the molar value.

| Molecule | pEC50 |
| --- | --- |
| COc1cccc(S(=O)(=O)N2CCC(n3c(-c4ccccc4)nc4cccnc43)CC2)c1 | > 5.00 |
| Cc1ccnc2c1nc(-c1ccncc1F)n2C1CCN(S(=O)(=O)c2ccc3c(c2)OC(F)(F)O3)CC1 | > 5.00 |
| CC1Cc2cc(S(=O)(=O)N3CCC(n4c(-c5ccncc5F)nc5cccnc54)CC3)ccc2N1 (stereo not shown) | > 5.00 |
| CCc1ccc(S(=O)(=O)N2CCC(N(c3cccc(OC)c3)S(=O)(=O)c3ccccc3Cl)CC2)cc1 | 4.70 to 5.00 |
| Cc1noc2ccc(S(=O)(=O)N3CCC(n4c(-c5ccc(F)cc5F)nc5cccnc54)CC3)cc12 | < 4.70 |
| CC(=O)N1c2ccc(S(=O)(=O)N3CCC(n4c(-c5ccc(F)cc5F)nc5cccnc54)CC3)cc2CC1C (stereo not shown) | > 5.00 |
| Cc1ccc2nc(-c3cccnc3Cl)n(C3CCN(S(=O)(=O)c4ccc5c(c4)OCO5)CC3)c2n1 | > 5.00 |

---

Below, each entry is listed with its recorded pEC50.
# Measured on: human F508del CFTR (Homo sapiens, UniProt P13569, DEL508-508)
# Construct: expressed in transfected cells
# Measurement protocol: CFTR-YFP Assay, CFTR Corrector Protocol (YFP flux assay)
# Assay type: cell-based
pEC50: −log10 of the molar value.

| Compound | pEC50 |
| --- | --- |
| COc1ccc(S(=O)(=O)N2CCC(n3c(-c4ccc(F)cc4F)nc4cccnc43)CC2)cc1Cl [Example 53] | > 5.00 |
| CCc1ccc(S(=O)(=O)N2CCC(N(C(=O)Nc3ccccc3)c3ccccn3)CC2)cc1 [Example 180] | 4.70 to 5.00 |
| CCc1ccc(S(=O)(=O)N2CCC(N(c3cccc(C)n3)S(=O)(=O)c3c(C)cc(C)cc3C)CC2)cc1 [Example 192] | > 5.00 |
| COc1ccc(S(=O)(=O)N2CCC(N(C(=O)c3ccccc3Cl)c3cccc(C)n3)CC2)cc1Cl [Example 206] | 4.70 to 5.00 |
| CCc1ccc(S(=O)(=O)N2CCC(N(c3ccccn3)S(=O)(=O)c3ccccc3C)CC2)cc1 [Example 225] | > 5.00 |
| O=S(=O)(c1ccc2snc(Cl)c2c1)N1CCC(n2c(-c3ccc(F)cc3F)nc3cccnc32)CC1 [Example 159] | > 5.00 |
| COc1ccc(S(=O)(=O)N2CCC(n3c(-c4ccccc4C#N)nc4cccnc43)CC2)cc1Cl [Example 50] | > 5.00 |
| Cc1cccc(N(C(=O)c2ccccc2Cl)C2CCN(S(=O)(=O)c3ccc4c(c3)OCO4)CC2)n1 [Example 202] | > 5.00 |
| O=S(=O)(c1ccc2c(c1)CCC2)N1CCC(n2c(-c3ccncc3F)nc3cccnc32)CC1 [Example 51] | > 5.00 |
| CCc1ccc(S(=O)(=O)N2CCC(n3c(-c4ccncc4Cl)nc4cc(O)ccc43)CC2)cc1 [Example 168] | > 5.00 |
| O=S(=O)(c1ccc2cc[nH]c2c1)N1CCC(n2c(-c3ccncc3F)nc3cccnc32)CC1 [Example 162] | > 5.00 |
| CCc1ccc(S(=O)(=O)N2CCC(N(c3ccc(C)cn3)S(=O)(=O)c3ccccc3Cl)CC2)cc1 [Example 227] | > 5.00 |
| COc1ccc2c(c1)nc(-c1ccccc1Cl)n2C1CCN(S(=O)(=O)c2ccc3c(c2)OC(F)(F)O3)CC1 [Example 153] | > 5.00 |
| COc1ccc(S(=O)(=O)N2CCC(N(c3cccc(C)n3)S(=O)(=O)c3ccccc3Cl)CC2)cc1Cl [Example 190] | > 5.00 |
| CCc1ccc(S(=O)(=O)N2CCC(n3c(-c4ccncc4Cl)nc4cccnc43)CC2)cc1 [Example 41] | > 5.00 |
| CCc1ccc(S(=O)(=O)N2CCC(N(c3ccncn3)S(=O)(=O)c3ccccc3Cl)CC2)cc1 [Example 249] | > 5.00 |
| CCc1ccc(S(=O)(=O)N2CCC(N(C(=O)c3ccccc3Cl)c3ccccn3)CC2)cc1 [Example 196] | 4.70 to 5.00 |
| CCc1ccc(S(=O)(=O)N2CCC(N(c3cccc(C)n3)S(=O)(=O)c3ccccc3Cl)CC2)cc1 [Example 189] | > 5.00 |
| CCc1ccc(S(=O)(=O)N2CCC(n3c(-c4ncccc4Cl)nc4cccnc43)CC2)cc1 [Example 91] | > 5.00 |
| CCc1ccc(S(=O)(=O)N2CCC(N(c3ccccn3)S(=O)(=O)c3ccc(C)cc3)CC2)cc1 [Example 229] | > 5.00 |
| O=S(=O)(c1ccc2c(c1)OCO2)N1CCC(n2c(-c3ccc(F)nc3F)nc3cccnc32)CC1 [Example 105] | > 5.00 |
| COc1ccc(S(=O)(=O)N2CCC(n3c(-c4ccccc4)nc4cccnc43)CC2)cc1C [Example 73] | > 5.00 |
| CCc1ccc(S(=O)(=O)N2CCC(N(c3ncccn3)S(=O)(=O)c3ccccc3Cl)CC2)cc1 [Example 242] | > 5.00 |
| CCc1ccc(S(=O)(=O)N2CCC(n3c(-c4ccncc4F)nc4cccnc43)CC2)cc1 [Example 110] | > 5.00 |
| CCc1ccc(S(=O)(=O)N2CCC(n3c(-c4ccncc4F)nc4ccc(C)nc43)CC2)cc1 [Example 113] | > 5.00 |
| CCc1ccc(S(=O)(=O)N2CCC(N(C(=O)c3ccccc3Cl)c3ccc4c(c3)OC(F)(F)O4)CC2)cc1 [Example 209] | > 5.00 |
| Cc1nc2ccc(S(=O)(=O)N3CCC(n4c(-c5ccncc5F)nc5cccnc54)CC3)cc2o1 [Example 133] | > 5.00 |
| COc1ccc(S(=O)(=O)N2CCC(n3c(-c4ccncc4Cl)nc4cccnc43)CC2)cc1Cl [Example 89] | 4.70 to 5.00 |
| Cc1n[nH]c2ccc(S(=O)(=O)N3CCC(n4c(-c5ccncc5F)nc5cccnc54)CC3)cc12 [Example 141] | > 5.00 |
| COc1ccc(S(=O)(=O)N2CCC(n3c(-c4ccccc4)cc4ccccc43)CC2)cc1Cl [Example 103] | > 5.00 |
| CCc1ccc(S(=O)(=O)N2CCC(N(c3cc(OC)ccn3)S(=O)(=O)c3ccccc3Cl)CC2)cc1 [Example 244] | 4.70 to 5.00 |

---

# Measured on: human F508del CFTR (Homo sapiens, UniProt P13569, DEL508-508)
# Measurement protocol: CFTR-YFP Assay, CFTR Corrector Protocol (YFP flux assay)

| Structure | EC50 |
| --- | --- |
| COc1ccc2c(c1)nc(-c1ccc(F)cc1F)n2C1CCN(S(=O)(=O)c2ccc3nc(C)oc3c2)CC1 | < 10 µM |
| CCc1ccc(S(=O)(=O)N2CCC(N(c3ccccn3)S(=O)(=O)c3cccc(C)c3)CC2)cc1 | < 10 µM |
| CCc1ccc(S(=O)(=O)N2CCC(N(C(=S)c3ccccc3Cl)c3ccccc3)CC2)cc1 | 10 to 20 µM |
| O=S(=O)(c1cccc(OC(F)F)c1)N1CCC(n2c(-c3ccncc3Cl)nc3cccnc32)CC1 | < 10 µM |
| COc1ccc(S(=O)(=O)N2CCC(N(c3cccc(C)n3)S(=O)(=O)c3ccccc3)CC2)cc1Cl | < 10 µM |
| COc1ccc(S(=O)(=O)N2CCC(n3c(-c4ccc5c(c4)OCO5)nc4cccnc43)CC2)cc1Cl | < 10 µM |
| O=S(=O)(c1ccc2c(c1)OC(F)(F)O2)N1CCC(n2c(-c3ccncc3F)nc3ncccc32)CC1 | < 10 µM |
| CCc1ccc(S(=O)(=O)N2CCC(n3c(-c4ccccc4Cl)nc4cc(OC)ccc43)CC2)cc1 | < 10 µM |
| [2H]C1([2H])Oc2ccc(S(=O)(=O)N3CCC(n4c(-c5ccncc5Cl)nc5cccnc54)CC3)cc2O1 | < 10 µM |
| O=S(=O)(c1ccc2c(c1)OCO2)N1CCC(n2c(-c3cccnc3F)nc3cccnc32)CC1 | < 10 µM |
| Cc1n[nH]c2ccc(S(=O)(=O)N3CCC(n4c(-c5ccc(F)cc5F)nc5cccnc54)CC3)cc12 | < 10 µM |
| CCc1ccc(S(=O)(=O)N2CCC(N(c3cnccn3)S(=O)(=O)c3ccccc3Cl)CC2)cc1 | < 10 µM |
| O=S(=O)(c1ccc2snc(Cl)c2c1)N1CCC(n2c(-c3ccncc3F)nc3cccnc32)CC1 | 10 to 20 µM |
| CCc1ccc(S(=O)(=O)N2CCC(n3c(-c4ccccc4Cl)nc4cc(O)ccc43)CC2)cc1 | > 20 µM |
| CCc1ccc(S(=O)(=O)N2CCC(n3c(-c4ccncc4Cl)nc4ccc(OC)nc43)CC2)cc1 | < 10 µM |
